Where do the numbers come from? From patent US20140162942A1.

measuredTarget: CYP2A6 (Homo sapiens)
Construct: Pooled human liver microsomes (from sixteen individuals) were used as the source of enzymes; tissue XenoTech, LLC; host or cells: human liver microsomes, pool of sixteen donors
Sequence (P11509 whole entry): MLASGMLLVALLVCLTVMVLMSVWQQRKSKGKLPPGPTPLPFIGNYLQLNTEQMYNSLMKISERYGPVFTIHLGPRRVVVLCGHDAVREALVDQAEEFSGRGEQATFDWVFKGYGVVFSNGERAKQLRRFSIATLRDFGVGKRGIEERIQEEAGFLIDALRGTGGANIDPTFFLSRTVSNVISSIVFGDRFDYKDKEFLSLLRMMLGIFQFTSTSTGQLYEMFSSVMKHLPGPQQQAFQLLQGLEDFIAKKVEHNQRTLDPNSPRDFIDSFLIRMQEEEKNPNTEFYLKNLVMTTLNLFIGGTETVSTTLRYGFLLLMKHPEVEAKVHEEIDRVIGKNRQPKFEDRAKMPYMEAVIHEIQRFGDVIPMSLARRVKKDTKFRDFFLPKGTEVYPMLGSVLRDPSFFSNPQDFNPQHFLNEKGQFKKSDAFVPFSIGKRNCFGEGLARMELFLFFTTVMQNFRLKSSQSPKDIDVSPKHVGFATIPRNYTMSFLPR
protocolDescription: CYP2A6 inhibition, coumarin 7-hydroxylation in human liver microsomes
Assay type: in vitro ADME
testContext: time-dependent inhibition, 30-minute pre-incubation
quantity: IC50

Lookup: May I ask what IC50 has been recorded for CC(C)(C)NC(=O)NC(C(=O)N1CC2C([C@H]1C(=O)NC(CC1CCC1)C(=O)C(N)=O)C2(C)C)C(C)(C)C (stereo partly shown) ?
Found: > 100 µM

---

measuredTarget: CYP2D6 (Homo sapiens)
Construct: Pooled human liver microsomes (from sixteen individuals) were used as the source of enzymes; tissue XenoTech, LLC; host or cells: human liver microsomes, pool of sixteen donors
protocolDescription: CYP2D6 inhibition, dextromethorphan O-demethylation in human liver microsomes
Type: in vitro ADME
testContext: direct inhibition, zero-minute pre-incubation, pooled human liver microsomes
quantity: IC50

Lookup: May I ask what IC50 has been recorded for CC(C)(C)NC(=O)NC(C(=O)N1CC2C([C@H]1C(=O)NC(CC1CCC1)C(=O)C(N)=O)C2(C)C)C(C)(C)C (stereo partly shown) [Boceprevir] ?
Found: > 100 µM

---

measuredTarget: CYP1A2 (Homo sapiens, UniProt P05177)
Construct: Pooled human liver microsomes (from sixteen individuals) were used as the source of enzymes; tissue XenoTech, LLC; host or cells: human liver microsomes, pool of sixteen donors
Sequence (P05177 whole entry): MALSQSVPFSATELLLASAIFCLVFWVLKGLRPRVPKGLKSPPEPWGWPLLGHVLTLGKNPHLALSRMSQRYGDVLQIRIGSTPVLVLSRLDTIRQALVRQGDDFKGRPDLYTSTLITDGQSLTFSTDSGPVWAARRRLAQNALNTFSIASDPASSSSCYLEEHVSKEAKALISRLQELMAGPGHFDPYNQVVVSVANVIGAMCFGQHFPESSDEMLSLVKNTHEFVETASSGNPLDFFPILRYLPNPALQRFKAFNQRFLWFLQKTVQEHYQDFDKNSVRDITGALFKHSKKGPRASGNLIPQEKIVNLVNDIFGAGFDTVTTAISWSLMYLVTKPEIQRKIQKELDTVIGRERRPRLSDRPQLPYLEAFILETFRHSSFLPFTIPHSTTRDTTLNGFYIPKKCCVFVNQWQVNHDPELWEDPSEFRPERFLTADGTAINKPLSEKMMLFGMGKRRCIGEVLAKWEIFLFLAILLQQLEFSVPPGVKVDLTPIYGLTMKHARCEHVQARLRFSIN
protocolDescription: CYP1A2 inhibition, phenacetin O-deethylation in human liver microsomes
Format: in vitro ADME
testContext: human, pooled human liver microsomes, pH 7.4, probe phenacetin (O-deethylation), 60 μM, time-dependent inhibition, 30-minute pre-incubation; read-out: Maximum Inhibition at 100 μM
quantity: inhibition at 5 min, 100 µM (%)
Your answer is read as %, so omit the unit and give the number.

Lookup: May I ask what inhibition at 5 min, 100 µM has been recorded for CC(C)(C)NC(=O)NC(C(=O)N1CC2C([C@H]1C(=O)NC(CC1CCC1)C(=O)C(N)=O)C2(C)C)C(C)(C)C (stereo partly shown) [Boceprevir] ?
Found: 9.8

---

Tested on: CYP3A4/5
protocolDescription: CYP3A4/5 inhibition, midazolam 1′-hydroxylation in human liver microsomes (IC50 and Ki)
Format: in vitro ADME
testContext: human, pooled human liver microsomes, pH 7.4, probe midazolam (1′-hydroxylation), time-dependent inhibition, 30-minute pre-incubation, read-out: Maximum Inhibition at 100 μM
quantity: inhibition at 5 min, 100 µM (%)
Your answer is read as %, so omit the unit and give the number.

Lookup: May I ask what inhibition at 5 min, 100 µM has been recorded for CC(C)(C)NC(=O)NC(C(=O)N1CC2C([C@H]1C(=O)NC(CC1CCC1)C(=O)C(N)=O)C2(C)C)C(C)(C)C (stereo partly shown) ?
Found: 99

---

System: CYP3A4/5
protocolDescription: CYP3A4/5 inhibition, testosterone 6β-hydroxylation in human liver microsomes
Format: in vitro ADME
testContext: human, pooled human liver microsomes, pH 7.4, probe testosterone (6β-hydroxylation), direct inhibition, zero-minute pre-incubation, read-out: Max. Inhib. at 100 μM
quantity: inhibition at 5 min, 100 µM (%)
Your answer is read as %, so omit the unit and give the number.

Lookup: May I ask what inhibition at 5 min, 100 µM has been recorded for CC(C)(C)NC(=O)NC(C(=O)N1CC2C([C@H]1C(=O)NC(CC1CCC1)C(=O)C(N)=O)C2(C)C)C(C)(C)C (stereo partly shown) ?
Found: 41

---

System: CYP3A4/5
protocolDescription: Clinical study: effect of boceprevir on the pharmacokinetic profile of midazolam in healthy adult subjects
testContext: both, human, in vivo, 4 mg, MDZ Tmax, MDZ Alone (Day 13), after boceprevir
quantity: Tmax (h)
Your answer is read as h, so omit the unit and give the number.

Lookup: May I ask what Tmax has been recorded for Cc1ncc2n1-c1ccc(Cl)cc1C(c1ccccc1F)=NC2 ?
Found: 1

---

measuredTarget: CYP2B6 (Homo sapiens, UniProt P20813)
Construct: Pooled human liver microsomes (from sixteen individuals) were used as the source of enzymes; tissue XenoTech, LLC; host or cells: human liver microsomes, pool of sixteen donors
Sequence (P20813 1-491): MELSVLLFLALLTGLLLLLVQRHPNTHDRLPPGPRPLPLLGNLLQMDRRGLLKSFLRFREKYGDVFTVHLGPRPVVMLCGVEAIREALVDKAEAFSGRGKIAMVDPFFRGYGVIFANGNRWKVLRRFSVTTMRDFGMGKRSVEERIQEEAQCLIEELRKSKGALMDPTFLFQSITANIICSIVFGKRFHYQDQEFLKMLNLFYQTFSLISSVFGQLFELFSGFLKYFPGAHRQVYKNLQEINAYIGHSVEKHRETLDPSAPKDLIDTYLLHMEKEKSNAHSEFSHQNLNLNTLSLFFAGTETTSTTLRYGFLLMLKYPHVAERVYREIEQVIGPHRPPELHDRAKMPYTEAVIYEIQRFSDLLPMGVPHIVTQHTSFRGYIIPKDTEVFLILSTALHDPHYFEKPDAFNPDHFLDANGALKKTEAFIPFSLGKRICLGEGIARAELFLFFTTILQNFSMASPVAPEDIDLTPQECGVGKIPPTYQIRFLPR
protocolDescription: CYP2B6 inhibition, bupropion hydroxylation in human liver microsomes
Format: in vitro ADME
testContext: direct inhibition, zero-minute pre-incubation, pooled human liver microsomes
pIC50: −log10 of the molar value.
quantity: pIC50

Lookup: May I ask what pIC50 has been recorded for CC(C)(C)NC(=O)NC(C(=O)N1CC2C([C@H]1C(=O)NC(CC1CCC1)C(=O)C(N)=O)C2(C)C)C(C)(C)C (stereo partly shown) ?
Found: < 4.00

---

measuredTarget: CYP2D6 (Homo sapiens, UniProt P10635)
Construct: Pooled human liver microsomes (from sixteen individuals) were used as the source of enzymes; tissue XenoTech, LLC; host or cells: human liver microsomes, pool of sixteen donors
Sequence (P10635 whole entry): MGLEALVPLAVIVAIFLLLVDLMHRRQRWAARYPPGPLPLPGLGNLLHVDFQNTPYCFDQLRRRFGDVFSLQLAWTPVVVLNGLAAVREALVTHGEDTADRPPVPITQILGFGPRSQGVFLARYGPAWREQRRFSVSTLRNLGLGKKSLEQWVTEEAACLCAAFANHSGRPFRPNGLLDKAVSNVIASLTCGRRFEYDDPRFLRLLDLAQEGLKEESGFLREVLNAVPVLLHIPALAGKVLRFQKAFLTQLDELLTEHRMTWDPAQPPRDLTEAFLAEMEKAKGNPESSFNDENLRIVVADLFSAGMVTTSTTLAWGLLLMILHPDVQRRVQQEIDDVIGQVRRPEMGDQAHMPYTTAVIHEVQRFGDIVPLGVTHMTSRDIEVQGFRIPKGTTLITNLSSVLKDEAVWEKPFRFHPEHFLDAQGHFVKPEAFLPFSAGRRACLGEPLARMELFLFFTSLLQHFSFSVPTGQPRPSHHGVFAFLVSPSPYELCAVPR
protocolDescription: CYP2D6 inhibition, dextromethorphan O-demethylation in human liver microsomes
Type: in vitro ADME
testContext: human, pooled human liver microsomes, pH 7.4, probe dextromethorphan (O-demethylation), time-dependent inhibition, 30-minute pre-incubation; read-out: Maximum Inhibition at 100 μM
quantity: inhibition at 5 min, 100 µM (%)
Your answer is read as %, so omit the unit and give the number.

Lookup: For the record CC(C)(C)NC(=O)NC(C(=O)N1CC2C([C@H]1C(=O)NC(CC1CCC1)C(=O)C(N)=O)C2(C)C)C(C)(C)C (stereo partly shown) [Boceprevir] , what value of inhibition at 5 min, 100 µM is listed for CYP2D6 (Homo sapiens, UniProt P10635)?
Found: 30

---

System: CYP3A4/5
protocolDescription: Clinical study: effect of boceprevir on the pharmacokinetic profile of midazolam in healthy adult subjects
testContext: both, human, in vivo, 4 mg, MDZ Cmax LS Mean, MDZ Alone (Day-1)
quantity: Cmax (ng/mL)
Your answer is read as ng/mL, so omit the unit and give the number.

Lookup: May I ask what Cmax has been recorded for Cc1ncc2n1-c1ccc(Cl)cc1C(c1ccccc1F)=NC2 [MDZ, midazolam] ?
Found: 9.96
